Source listed as patent US20210107971A1.

Target: purified recombinant human alpha synuclein fibrils (human, UniProt P37840 1-140)
Experiment: SPR, Biacore T200, as in Example 3; Fab injected;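 also: ligands amine-coupled on CM5 chip flow cells, HBS-EP+ running buffer, kinetic data fitted with 1:1 model allowing local bulk contribution and global Rmax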
Listing of entries alongside the reported Kd.
I only need the number, in nM, no unit after it.

These recorded examples may help you get a feel for the data.
6470 rabbit Fab with heavy chain mutation H31R (Fab, V domains shown) VH: QSVEESGGRLVTPGTPLTLTCTVSGIDLSSRDMYWVRQAPGKGLEYIGAIYASGSTYYASWAKGRFTISKTSTTVDLKMTSLTTEDTATYFCARIHYGNSGGLWGQGTLVTVSS VL: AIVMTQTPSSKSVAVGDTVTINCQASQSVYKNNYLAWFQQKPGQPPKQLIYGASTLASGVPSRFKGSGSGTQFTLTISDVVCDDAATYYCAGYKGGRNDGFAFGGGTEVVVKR : 62.3
6470 rabbit Fab with heavy chain mutation H31K (Fab, V domains shown) VH: QSVEESGGRLVTPGTPLTLTCTVSGIDLSSKDMYWVRQAPGKGLEYIGAIYASGSTYYASWAKGRFTISKTSTTVDLKMTSLTTEDTATYFCARIHYGNSGGLWGQGTLVTVSS VL: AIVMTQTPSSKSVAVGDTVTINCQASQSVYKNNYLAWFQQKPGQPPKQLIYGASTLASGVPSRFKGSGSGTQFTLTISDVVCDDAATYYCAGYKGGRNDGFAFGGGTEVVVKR : 46.7
6470 rabbit Fab with heavy chain mutation S55N (Fab, V domains shown) VH: QSVEESGGRLVTPGTPLTLTCTVSGIDLSSHDMYWVRQAPGKGLEYIGAIYASGNTYYASWAKGRFTISKTSTTVDLKMTSLTTEDTATYFCARIHYGNSGGLWGQGTLVTVSS VL: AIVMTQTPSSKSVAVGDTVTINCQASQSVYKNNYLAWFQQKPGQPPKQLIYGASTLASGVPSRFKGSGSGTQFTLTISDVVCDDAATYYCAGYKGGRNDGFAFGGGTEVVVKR : 1.4
6470 rabbit Fab with heavy chain mutation H31Q (Fab, V domains shown) VH: QSVEESGGRLVTPGTPLTLTCTVSGIDLSSQDMYWVRQAPGKGLEYIGAIYASGSTYYASWAKGRFTISKTSTTVDLKMTSLTTEDTATYFCARIHYGNSGGLWGQGTLVTVSS VL: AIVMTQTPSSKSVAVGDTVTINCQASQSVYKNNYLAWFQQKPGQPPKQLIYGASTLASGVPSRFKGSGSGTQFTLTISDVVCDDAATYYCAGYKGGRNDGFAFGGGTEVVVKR : 12.4

Q) Which Kd is listed for 6470 rabbit Fab with heavy chain mutation N99K (Fab, V domains shown) VH: QSVEESGGRLVTPGTPLTLTCTVSGIDLSSHDMYWVRQAPGKGLEYIGAIYASGSTYYASWAKGRFTISKTSTTVDLKMTSLTTEDTATYFCARIHYGKSGGLWGQGTLVTVSS VL: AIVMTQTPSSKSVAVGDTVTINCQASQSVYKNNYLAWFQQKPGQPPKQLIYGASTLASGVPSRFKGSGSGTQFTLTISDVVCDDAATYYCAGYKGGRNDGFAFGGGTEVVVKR ?
A) 20.7
